ASSAYED SYSTEM: guanosine/adenosine/cytidine nucleoside hydrolase (GACNH) (Trichomonas vaginalis)
RUN DESCRIPTION: 1H NMR-based activity assay of GACNH
Assay type: biochemical
STATED CONDITIONS: IC50 against GACNH, ribavirin analogs, Table 2
Could you please report measured IC50 for the items listed next?
Your answer is read as µM, so omit the unit and give the number.

Q: What is its IC50 for guanosine/adenosine/cytidine nucleoside hydrolase (GACNH) (Trichomonas vaginalis)? Entry: N=C(N)c1ncn([C@@H]2O[C@H](CO)[C@@H](O)[C@H]2O)n1
Result: 1.1

Q: Next compound up: NC(=O)c1ncn([C@@H]2O[C@H](CO)[C@@H](O)[C@H]2O)n1
Result: 8.6
